Hi there, I'd appreciate the recorded Dmax for every entry that follows.
TARGET_DESC: HiBit-KRAS^G12C (Homo sapiens, UniProt P01116, G12C)
Sequence (P01116 1-186 isoform P01116-2 G12C limits assumed): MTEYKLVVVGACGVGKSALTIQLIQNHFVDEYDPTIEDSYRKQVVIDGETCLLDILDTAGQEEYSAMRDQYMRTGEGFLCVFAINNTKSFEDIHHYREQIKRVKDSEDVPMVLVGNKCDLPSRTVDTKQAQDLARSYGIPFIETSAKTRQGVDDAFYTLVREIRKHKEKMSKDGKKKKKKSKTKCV
ASSAY_REMARKS: HiBit degradation assay in MiaPaCa-2 HiBit-KRas^G12C cells
Assay type: cell-based
TEST_CONTEXT: MIA PaCa-2, MiaPaCa-2 HiBit-KRas^G12C cells; 0.5% DMSO; 24 hours; maximum degradation; read-out: KRas^G12C-HiBiT (MiaPaCa; 0.5% DMSO) DMax

COMPOUND | TARGET_DESC | Dmax
C=CC(=O)N1CCN(c2nc(OCCN3CCC(OCCOc4cc([C@H](C(=O)N5C[C@H](O)C[C@H]5C(=O)N[C@@H](C)c5ccc(-c6scnc6C)cc5)C(C)C)on4)CC3)nc3c(F)c(-c4cc(O)cc5ccccc45)c(Cl)cc23)C[C@@H]1CC#N (single isomer, unassigned) | HiBit-KRAS^G12C (Homo sapiens, UniProt P01116, G12C) | > 70%

Return reported Dmax; argument: C=CC(=O)N1CCN(c2nc(OC[C@@H]3CCN(CCCOCC(=O)N[C@H](C(=O)N4C[C@H](O)C[C@H]4C(=O)N[C@@H](C)c4ccc(-c5scnc5C)cc4)C(C)(C)C)C3)nc3c(F)c(-c4cc(O)cc5ccccc45)c(Cl)cc23)C[C@@H]1CC#N
> 70%
